# Measured Target: Fuc(a1-2)[Gal(a1-3)]Gal(b1-4)GlcNAc(b1-6)GalNAc
# Assay Explanation: glycan array binding signal (z-score within array); higher = stronger binding
# Setup Conditions: glycan notation: IUPAC condensed, linker removed
Only a selection was taken, and the strongest signals are over-represented in it overall.
Measurement Kind: glycan array binding signal (z-score)
Simply state the number, no unit and no words.

Lab note: measured glycan array binding signal (z-score) of Gal 9 (Homo sapiens), O00182 (protein) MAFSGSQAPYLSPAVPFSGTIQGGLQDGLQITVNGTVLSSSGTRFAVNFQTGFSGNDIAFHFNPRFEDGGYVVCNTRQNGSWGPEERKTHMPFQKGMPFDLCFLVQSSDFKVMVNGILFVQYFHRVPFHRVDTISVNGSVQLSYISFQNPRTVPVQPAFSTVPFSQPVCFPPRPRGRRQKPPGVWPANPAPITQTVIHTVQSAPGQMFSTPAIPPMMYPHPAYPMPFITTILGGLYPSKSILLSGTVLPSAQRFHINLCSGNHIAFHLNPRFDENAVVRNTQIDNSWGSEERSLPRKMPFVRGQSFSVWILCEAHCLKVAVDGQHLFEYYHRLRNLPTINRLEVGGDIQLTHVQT was -0.307
